- system: human glucocorticoid receptor-α [GRX] isoform (Homo sapiens)
- Construct: purchased Ligand Pharmaceuticals (San Diego, CA); host or cells: insect SF21 cells (baculovirus)
- Sequence (P04150 whole entry, canonical isoform): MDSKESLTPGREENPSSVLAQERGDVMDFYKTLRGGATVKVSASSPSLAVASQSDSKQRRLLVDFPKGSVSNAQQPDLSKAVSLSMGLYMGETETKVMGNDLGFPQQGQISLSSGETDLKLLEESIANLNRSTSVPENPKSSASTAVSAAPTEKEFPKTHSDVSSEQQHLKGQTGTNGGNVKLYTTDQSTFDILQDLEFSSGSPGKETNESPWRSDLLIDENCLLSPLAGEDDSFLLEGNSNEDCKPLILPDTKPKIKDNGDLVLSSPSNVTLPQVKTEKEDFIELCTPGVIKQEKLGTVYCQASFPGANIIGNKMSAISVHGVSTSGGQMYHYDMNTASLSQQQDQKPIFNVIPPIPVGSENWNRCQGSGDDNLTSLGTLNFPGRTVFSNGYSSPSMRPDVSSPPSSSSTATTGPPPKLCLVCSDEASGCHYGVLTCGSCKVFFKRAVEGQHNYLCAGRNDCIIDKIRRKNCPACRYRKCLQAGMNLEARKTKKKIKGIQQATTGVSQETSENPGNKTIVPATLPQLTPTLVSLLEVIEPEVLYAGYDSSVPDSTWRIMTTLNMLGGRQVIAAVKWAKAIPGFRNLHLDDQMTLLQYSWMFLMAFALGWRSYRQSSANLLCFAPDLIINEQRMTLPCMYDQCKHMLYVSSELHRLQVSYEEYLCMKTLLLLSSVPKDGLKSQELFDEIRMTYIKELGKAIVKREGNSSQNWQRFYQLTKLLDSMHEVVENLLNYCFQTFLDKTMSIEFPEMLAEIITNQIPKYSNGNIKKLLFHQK
- procedure_details: glucocorticoid receptor (GR) cytosol binding assay, [3H]-dexamethasone competition
- condition: [3H]-Dex ~0.9 nM, GRX cytosol, 4 °C overnight; Cheng-Prusoff; read-out: Ki (nM) GR
measurement_type: Ki (nM)

Below are worked cases with known answers.
compound: CC(=O)OCCN(C)c1ccc(C(c2ccc(N(C)CCOC(C)=O)cc2)c2cc([N+](=O)[O-])ccc2Cl)cc1
system: human glucocorticoid receptor-α [GRX] isoform (Homo sapiens)
unit: nM
Ki: 145
--
compound: CN(C(=O)OC(C)(C)C)c1ccc(C(c2ccc(N(C)C(=O)OC(C)(C)C)cc2)c2cc([N+](=O)[O-])ccc2Cl)cc1
system: human glucocorticoid receptor-α [GRX] isoform (Homo sapiens)
unit: nM
Ki: 4560

[P] CN(C)c1ccc(C(O)(c2ccccc2)c2ccccc2Cl)cc1 (centres unmarked)
[Q] CN(C)c1ccc(C(c2ccc(N(C)C)cc2)c2cc(NC(=O)C3CC3)ccc2Cl)cc1
// query Pick one: P or Q . Which one has the lower reported Ki? Write the label of whichever entry you select.
// result P

[a] CN(C)c1ccc(C(c2ccccc2)c2ccccc2Cl)cc1 (centres unmarked)
[b] CN(C)c1ccc(C(c2ccccc2)c2cc([N+](=O)[O-])ccc2Cl)cc1 (centres unmarked)
// query Could you kindly indicate whether a or b has the higher Ki value? Write the label of whichever entry you select.
// result a

* * *

- system: human progesterone receptor-A [PRA] isoform (Homo sapiens, UniProt P06401)
- Construct: purchased Ligand Pharmaceuticals (San Diego, CA); host or cells: insect SF21 cells (baculovirus)
- Sequence (P06401 165-933): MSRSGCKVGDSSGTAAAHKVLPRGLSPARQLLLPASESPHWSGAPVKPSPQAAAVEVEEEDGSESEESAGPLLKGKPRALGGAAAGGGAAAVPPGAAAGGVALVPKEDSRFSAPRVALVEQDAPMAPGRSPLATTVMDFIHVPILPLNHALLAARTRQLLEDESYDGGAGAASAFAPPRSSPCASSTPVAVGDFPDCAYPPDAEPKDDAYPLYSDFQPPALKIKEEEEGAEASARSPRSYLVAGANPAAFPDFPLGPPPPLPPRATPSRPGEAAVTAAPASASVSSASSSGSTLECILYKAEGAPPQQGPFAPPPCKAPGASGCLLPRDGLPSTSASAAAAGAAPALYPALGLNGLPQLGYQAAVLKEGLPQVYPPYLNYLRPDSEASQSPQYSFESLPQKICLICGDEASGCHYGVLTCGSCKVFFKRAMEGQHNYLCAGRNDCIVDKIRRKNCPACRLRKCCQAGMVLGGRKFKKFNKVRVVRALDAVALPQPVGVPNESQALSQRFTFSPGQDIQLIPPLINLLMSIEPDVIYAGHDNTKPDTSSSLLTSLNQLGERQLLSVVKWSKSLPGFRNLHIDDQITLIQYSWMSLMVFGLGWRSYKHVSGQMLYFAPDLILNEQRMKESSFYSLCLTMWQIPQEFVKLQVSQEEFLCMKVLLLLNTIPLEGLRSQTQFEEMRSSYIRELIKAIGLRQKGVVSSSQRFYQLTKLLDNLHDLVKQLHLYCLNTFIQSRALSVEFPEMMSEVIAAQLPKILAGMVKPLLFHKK
- procedure_details: progesterone receptor cytosol (PR) binding assay, [3H]-progesterone competition
- condition: [3H]Prog ~0.8 nM, 4 °C overnight, Cheng-Prusoff
measurement_type: Ki (nM)

compound: CNc1ccc(C(c2ccc(N(C)CCOC(C)=O)cc2)c2cc([N+](=O)[O-])ccc2Cl)cc1 (stereo not shown)
unit: nM
Ki: 241

compound: CC(=O)OCCN(C)c1ccc(C(c2ccc(N(C)C)cc2)c2cc([N+](=O)[O-])ccc2Cl)cc1 (stereo not shown)
unit: nM
Ki: 1080

compound: CN(CCO)c1ccc(C(c2ccc(N(C)CCO)cc2)c2cc([N+](=O)[O-])ccc2Cl)cc1
unit: nM
Ki: 536

[a] O=[N+]([O-])c1ccc(Cl)c(C(c2ccc(NCc3ccccc3)cc2)c2ccc(NCc3ccccc3)cc2)c1
[b] CNc1ccc(C(c2ccc(NC)cc2)c2cc(Cl)ccc2Cl)cc1
[c] CNc1ccc(C(c2ccc(NC)cc2)c2cc([N+](=O)[O-])ccc2Cl)cc1
// query Order the records by Ki, with each subsequent value no larger than the one before. Hello, could you send the labels back in the order asked? Thank you.
// result a, c, b

* * *

- system: human androgen receptor (AR) (Homo sapiens)
- Construct: The full length human androgen receptor (AR) was derived from cDNA expressed in a baculovirus expression system; purchased Ligand Pharmaceuticals (San Diego, CA); host or cells: SF21 insect cells (baculovirus)
- Sequence (P10275 whole entry): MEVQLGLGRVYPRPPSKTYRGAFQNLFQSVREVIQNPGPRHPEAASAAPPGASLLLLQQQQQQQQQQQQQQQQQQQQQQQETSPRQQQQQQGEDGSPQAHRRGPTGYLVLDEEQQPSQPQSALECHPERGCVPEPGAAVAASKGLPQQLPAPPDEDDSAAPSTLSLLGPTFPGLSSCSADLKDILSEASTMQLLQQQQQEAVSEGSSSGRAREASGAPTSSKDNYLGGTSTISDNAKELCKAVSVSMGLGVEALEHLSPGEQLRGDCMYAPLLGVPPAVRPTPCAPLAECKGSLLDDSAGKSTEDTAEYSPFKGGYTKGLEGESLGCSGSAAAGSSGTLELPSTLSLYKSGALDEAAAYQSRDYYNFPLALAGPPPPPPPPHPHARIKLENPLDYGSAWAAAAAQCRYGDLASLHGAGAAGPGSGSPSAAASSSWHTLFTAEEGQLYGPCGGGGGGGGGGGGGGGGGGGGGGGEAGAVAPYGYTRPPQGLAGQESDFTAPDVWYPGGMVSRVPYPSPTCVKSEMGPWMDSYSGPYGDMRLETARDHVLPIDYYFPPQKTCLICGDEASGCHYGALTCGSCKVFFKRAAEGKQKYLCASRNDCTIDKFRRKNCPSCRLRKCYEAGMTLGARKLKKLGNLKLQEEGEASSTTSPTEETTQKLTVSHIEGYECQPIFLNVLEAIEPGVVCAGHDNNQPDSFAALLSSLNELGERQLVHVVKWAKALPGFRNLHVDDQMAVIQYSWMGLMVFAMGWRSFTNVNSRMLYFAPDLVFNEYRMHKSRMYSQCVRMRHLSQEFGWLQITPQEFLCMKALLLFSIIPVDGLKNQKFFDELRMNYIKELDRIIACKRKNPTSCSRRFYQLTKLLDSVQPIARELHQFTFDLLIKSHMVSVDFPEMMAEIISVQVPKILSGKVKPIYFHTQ
- procedure_details: human androgen receptor (AR) cytosol binding assay, [3H]-dihydrotestosterone competition
- condition: 1-2 nM [3H]-DHT, 4 °C for 18 hours; Cheng-Prusoff
measurement_type: Ki (nM)

compound: O=[N+]([O-])c1ccc(Cl)c(C(c2ccc(NCc3ccccc3)cc2)c2ccc(NCc3ccccc3)cc2)c1 [Example 36]
Ki, nM: 3730
//
compound: CN(CCO)c1ccc(C(c2ccc(N(C)CCO)cc2)c2cc([N+](=O)[O-])ccc2Cl)cc1 [Example 32]
Ki, nM: 3520
//
compound: CC(=O)OCCN(C)c1ccc(C(c2ccc(N(C)CCOC(C)=O)cc2)c2cc([N+](=O)[O-])ccc2Cl)cc1 [Example 31]
Ki, nM: 3520
//
compound: CN(C)c1ccc(C(c2ccc(N(C)C)cc2)c2cc(Cl)ccc2Cl)cc1 [Example 24]
Ki, nM: 3730
//
compound: CNc1ccc(C(c2ccc(NC)cc2)c2cc([N+](=O)[O-])ccc2Cl)cc1 [Example 23]
Ki, nM: 4260
//
compound: CNc1ccc(C(c2ccc(N(C)C)cc2)c2cc([N+](=O)[O-])ccc2Cl)cc1 (stereo not shown) [Example 39]
Ki, nM: 3730
//
compound: CNc1ccc(C(c2ccc(N(C)CCOC(C)=O)cc2)c2cc([N+](=O)[O-])ccc2Cl)cc1 (stereo not shown) [Example 49]
Ki, nM: 1040
//
compound: CN(C)c1ccc(C(Sc2ccccc2)c2cc([N+](=O)[O-])ccc2Cl)cc1 (stereo not shown) [Example 54]
Ki, nM: 3730
//
compound: CN(C)c1ccc(C(c2ccc(N(C)CCO)cc2)c2cc([N+](=O)[O-])ccc2Cl)cc1 (stereo not shown) [Example 42]
Ki, nM: 2800
//
compound: CN(C)c1ccc(C(c2ccc(N(C)C)cc2)c2cc([N+](=O)[O-])ccc2Cl)cc1 [Example 1]
Ki, nM: 3730
//
compound: CNc1ccc(C(c2ccc(NC)cc2)c2cc(Cl)ccc2Cl)cc1 [Example 27]
Ki, nM: 3240
